# run-description: Solubility determination in purified water at 25° C.
# Type: physicochemical
# particulars: water, base, HPLC assay, read-out: Solubility in Water
measured-endpoint: solubility (µg/mL)
Report the figure in µg/mL without appending any unit label.

[Q] Item under review: Cc1ccc(N2CCN(C)CC2)c2c1CC[C@@H](NC(=O)c1ccc(N3CCOCC3)cc1)C2 [Base] . Reported solubility?
[A] 34

====

# run-description: Solubility determination in purified water at 25° C.
# Type: physicochemical
# particulars: water, salts, HPLC assay, read-out: Solubility mg/mL (Solubility in Water at 25° C. for different salts)
# Protocol: Excess of (R)-N-[5-methyl-8-(4-methylpiperazin-1-yl)-1,2,3,4-tetrahydro-2-naphthyl]- 4-morpholinobenzamide or it's corresponding salts was added to purified water. The solution was agitated overnight in a water bath, kept at 25° C. by using a thermostat (Julabo SW and U3, 60 strokes/min). The saturated solution was centrifuged and filtered through a 0.45 .quadrature.m Gelman GHP Acrodisc® 13 filter, diluted and assayed by HPLC.
measured-endpoint: solubility (mg/mL)
Value expressed in mg/mL; do not type the unit.

[Q] Any idea what its solubility is? The compound is Br.Br.Cc1ccc(N2CCN(C)CC2)c2c1CC[C@@H](NC(=O)c1ccc(N3CCOCC3)cc1)C2 [Dihydrobromide]
[A] 4.6

====

# run-description: Solubility determination in purified water at 25° C.
# Format: physicochemical
# particulars: salts, HPLC assay, read-out: Solubility mg/mL (Solubility in Water at 25° C. for different salts)
measured-endpoint: solubility (mg/mL)
The reply should be a number in mg/mL, with the unit left off.

[Q] Need solubility of C[C@H](O)C(=O)O.Cc1ccc(N2CCN(C)CC2)c2c1CC[C@@H](NC(=O)c1ccc(N3CCOCC3)cc1)C2 [L-Lactate] , thanks.
[A] 18.8

This collection of values is drawn from patent US6291458A.
